# Target System: Human Kv1.5 channels (Homo sapiens, UniProt P22460)
# Construct: expressed in transfected cells; host or cells: Xenopus laevis oocytes injected with in vitro synthesized Kv1.5-encoding RNA
# Sequence (P22460 whole entry): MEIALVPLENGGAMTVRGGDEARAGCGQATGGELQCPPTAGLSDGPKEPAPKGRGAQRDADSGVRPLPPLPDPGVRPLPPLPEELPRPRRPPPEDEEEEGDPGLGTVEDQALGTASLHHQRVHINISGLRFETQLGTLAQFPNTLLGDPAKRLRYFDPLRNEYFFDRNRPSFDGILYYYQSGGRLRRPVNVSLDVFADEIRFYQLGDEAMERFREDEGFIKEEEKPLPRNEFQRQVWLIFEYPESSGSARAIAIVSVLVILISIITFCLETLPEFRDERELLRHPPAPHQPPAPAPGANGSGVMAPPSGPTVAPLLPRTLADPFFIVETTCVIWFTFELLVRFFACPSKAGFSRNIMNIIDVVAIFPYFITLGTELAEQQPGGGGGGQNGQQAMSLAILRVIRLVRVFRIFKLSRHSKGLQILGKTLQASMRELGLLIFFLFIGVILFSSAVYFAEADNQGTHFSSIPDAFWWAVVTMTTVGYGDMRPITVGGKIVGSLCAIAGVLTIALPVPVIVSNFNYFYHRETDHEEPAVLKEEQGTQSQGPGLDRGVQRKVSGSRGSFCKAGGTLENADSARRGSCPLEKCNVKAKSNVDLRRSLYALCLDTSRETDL
# Measurement Protocol: Kv1.5 currents in Xenopus oocytes, two-microelectrode voltage clamp
# Assay type: cell-based
# Assay Conditions: human Kv1.5 expressed in Xenopus laevis oocytes; voltage jumps 500 ms to 0 mV and 40 mV; room temperature; Hill equation
Please note: IC50 exactly at 5 µM is False. Only values below 5 µM get True.

Example entries begin here.
INSERT INTO measurements (compound, target_system, category_label) VALUES
  ('CC[C@H](NC(=O)c1ccccc1NS(=O)(=O)c1ccc(OC(F)(F)F)cc1)c1ccccc1', 'Human Kv1.5 channels (Homo sapiens, UniProt P22460)', 'False'),
  ('Cc1cccc(S(=O)(=O)Nc2ccccc2C(=O)N(Cc2ccccc2)Cc2cccnc2)c1', 'Human Kv1.5 channels (Homo sapiens, UniProt P22460)', 'True'),
  ('CCCCS(=O)(=O)Nc1ccccc1C(=O)N(Cc1ccccc1)Cc1cccnc1', 'Human Kv1.5 channels (Homo sapiens, UniProt P22460)', 'False'),
  ('CCCCS(=O)(=O)Nc1ccc(C)cc1C(=O)NC(C)c1ccccc1 (centres unmarked)', 'Human Kv1.5 channels (Homo sapiens, UniProt P22460)', 'True'),
  ('Cc1ccc(S(=O)(=O)Nc2ccc(F)cc2C(=O)NC2CCCCC2)cc1', 'Human Kv1.5 channels (Homo sapiens, UniProt P22460)', 'False');

Say whether its IC50 is strictly beneath 5 µM. Entry: CCCCS(=O)(=O)Nc1ccc(C)cc1C(=O)NC(c1ccccn1)C1CC1 (centres unmarked)
True

Say whether its IC50 is strictly beneath 5 µM. Entry: COc1ccc([C@H](C)NC(=O)c2cc(Cl)ccc2NS(=O)(=O)c2ccccc2)cc1
True

Say whether its IC50 is strictly beneath 5 µM. Entry: COc1ccc(NS(=O)(=O)c2ccc(C)cc2)c(C(=O)N[C@@H](C)C2CCCCC2)c1
True

Say whether its IC50 is strictly beneath 5 µM. Entry: CC[C@H](NC(=O)c1ccccc1NS(=O)(=O)c1cccc2ccccc12)c1ccccc1
True

Say whether its IC50 is strictly beneath 5 µM. Entry: CCC(NC(=O)c1ccccc1NS(=O)(=O)c1ccc(C)cc1)c1ccco1 (centres unmarked)
True

Say whether its IC50 is strictly beneath 5 µM. Entry: Cc1ccc(S(=O)(=O)Nc2ccccc2C(=O)N(Cc2ccn[nH]2)CC2CC2)cc1
False

Say whether its IC50 is strictly beneath 5 µM. Entry: CC[C@H](NC(=O)c1ccccc1NS(=O)(=O)c1ccc(C)cc1OC)c1ccccc1
True

Say whether its IC50 is strictly beneath 5 µM. Entry: CCN(C(=O)c1cc(F)ccc1NS(=O)(=O)c1ccc(C)cc1)C1CCCCC1
False

Say whether its IC50 is strictly beneath 5 µM. Entry: Cc1ccc(S(=O)(=O)Nc2ccccc2C(=O)N(Cc2ccco2)Cc2nccn2C)cc1
True

Say whether its IC50 is strictly beneath 5 µM. Entry: Cc1ccc(S(=O)(=O)Nc2ccc(F)cc2C(=O)N(Cc2ccccc2)Cc2ccn[nH]2)cc1
True

Say whether its IC50 is strictly beneath 5 µM. Entry: CCN(C(=O)c1ccccc1NS(=O)(=O)c1ccc(Cl)cc1)C1CCCCC1
False
